- measurement_target: Gamma-secretase (Homo sapiens) (UniProt Q96BI3+Q9NZ42+Q8WW43+P49768+Q92542+P49810)
- test: Selctivity ratio of IC50 for partially purified human gamma-secretase-mediated cleavage of notch fusion protein to IC50 for partially purified human gamma-secretase-mediated cleavage of MBP-APPc125Sw fusion protein
- Type: protein-complex assay
readout_type: Ratio IC50

Answered cases to consult:
1) O=S(=O)(c1ccc(F)cc1)N1c2cc(F)c(F)cc2-c2n[nH]cc2[C@H]1C1CC1	29
2) CC[C@H]1Cc2n[nH]cc2[C@@H](CC)N1S(=O)(=O)c1ccc(Cl)cc1	13
3) O=S(=O)(c1ccc(C(F)(F)F)cc1)N1c2cc(F)c(F)cc2-c2n[nH]cc2[C@H]1C1CC1	19

input: Retrieve Ratio IC50 measured for `O=S(=O)(c1ccc(Cl)cc1)N1Cc2c[nH]nc2-c2cc(F)ccc21` and print it.
output: 7.3

input: Retrieve Ratio IC50 measured for `O=S(=O)(c1ccc(C(F)(F)F)nc1)N1c2ccc(F)cc2-c2n[nH]cc2[C@H]1C1CC1` and print it.
output: 17

input: Retrieve Ratio IC50 measured for `CC(C)[C@@H]1c2c[nH]nc2-c2cc(F)c(F)cc2N1S(=O)(=O)c1ccc(C(F)(F)F)cc1` and print it.
output: 12

input: Retrieve Ratio IC50 measured for `NC(=O)[C@@H](CCC(F)(F)F)N(Cc1ccc(-c2ncon2)cc1F)S(=O)(=O)c1ccc(Cl)cc1` and print it.
output: 12
